Provide the recorded pIC50 for the entries that follow.
- MEASURED_TARGET: human DDX3 (ATPase activity) (Homo sapiens, UniProt O00571)
- Sequence (O00571 whole entry): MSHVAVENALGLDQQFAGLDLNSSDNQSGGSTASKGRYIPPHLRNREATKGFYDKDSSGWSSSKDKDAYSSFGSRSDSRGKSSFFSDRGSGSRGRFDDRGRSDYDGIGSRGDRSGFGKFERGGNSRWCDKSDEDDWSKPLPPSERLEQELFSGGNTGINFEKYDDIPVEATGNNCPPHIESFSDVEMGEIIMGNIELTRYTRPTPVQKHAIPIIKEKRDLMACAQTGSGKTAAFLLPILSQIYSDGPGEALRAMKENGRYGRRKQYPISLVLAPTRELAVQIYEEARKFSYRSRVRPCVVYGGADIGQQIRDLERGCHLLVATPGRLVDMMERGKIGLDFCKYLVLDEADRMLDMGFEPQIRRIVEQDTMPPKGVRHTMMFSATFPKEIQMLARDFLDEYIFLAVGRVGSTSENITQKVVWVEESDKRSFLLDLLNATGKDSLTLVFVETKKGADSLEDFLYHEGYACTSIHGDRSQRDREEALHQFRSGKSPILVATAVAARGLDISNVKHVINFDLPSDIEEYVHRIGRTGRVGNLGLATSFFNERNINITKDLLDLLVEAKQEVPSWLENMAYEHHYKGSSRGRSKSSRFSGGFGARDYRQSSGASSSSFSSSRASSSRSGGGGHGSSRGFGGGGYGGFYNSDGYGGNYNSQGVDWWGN
Lab note: report pIC50 as minus log10 of the concentration in molar units, number only.

For the compound shown here, Cc1ccccc1NC(=O)Nc1cccc([N+](=O)[O-])c1 [Compound 25, 1-(3-nitrophenyl)-3-o-tolylurea] , give the reported pIC50. 4.96

Please give the result for Cc1ccccc1NC(=O)Nc1cccc(NC(=O)Nc2ccccc2C)c1 [EI-01] too. 3.61

* * *

What log10 of Ki was measured for each of the following?
- MEASURED_TARGET: human DDX3 (ATPase activity) (Homo sapiens, UniProt O00571)
- Construct: made in house; host or cells: E. coli
- ASSAY_NOTES: Human DDX3 ATPase activity assay (luciferase-based luminescence)
- Format: biochemical
- REPORTED_CONDITIONS: DDX3 ATPase activity; read-out: Ki (μM), apparent equilibrium dissociation constant for the inhibitor to the target enzyme DDX3
Remember, log10 of Ki, in µM.

# lookup: log10 of Ki of O=C(CCN1C(=O)/C(=C/c2ccc3c(c2)OCO3)SC1=S)Nc1ccccc1O [Compound 35f] 0.00

Would you mind doing Cc1cccc(/C=C2\SC(=S)N(CCC(=O)Nc3ccccc3O)C2=O)c1 [Compound 35d] as well? 1.99

Then O=C(NCCN1C(=O)/C(=C/c2cccc(Br)c2)SC1=S)c1ccccc1O [Compound 3j] ? 0.62

Now give it for Oc1ccccc1/C=N/Nc1nc(NCc2cccc(Cl)c2)nc(N2CCOCC2)n1 [Compound 15j] too. 1.79

Next: CC(=O)Nc1ccc(/C(C)=N/Nc2nc(Nc3ccccc3)nc(N3CCOCC3)n2)cc1 [FE-56AI] 0.34

Could you do the same for O=C(CCN1C(=O)/C(=C/c2cccc(F)c2)SC1=S)Nc1ccccc1O [Compound 35b] , please? -0.52

Next entry: OCCc1cc(Nc2ccc(F)cc2)nc(N/N=C/c2ccccc2O)n1 [Compound 22] 0.95

Likewise for COc1cc(/C=C2\SC(=S)N(CCC(=O)N3CCCc4ccccc43)C2=O)cc(OC)c1OC [FE-69] ? -0.05

Okay, and O=C(CCN1C(=O)C/C(=C\c2cccc(Br)c2)C1=O)Nc1ccccc1O [Compound 6b] ? 1.45

* * *

- MEASURED_TARGET: human DDX3 (helicase activity) (Homo sapiens, UniProt O00571)
- Sequence (O00571 whole entry): as above
Kindly supply the reported pIC50 values for the records listed here.
Interpret pIC50 as the negative base-10 log of the concentration measured in mol/L.

For O=C(Nc1cccc([N+](=O)[O-])c1)Nc1cccc([N+](=O)[O-])c1 , what is its reported pIC50? 4.28

// repeat for Cc1ccc(NC(=O)c2cccc(NC(=O)Nc3cccc(C)c3C)c2)cc1C [EI-01A] and report 3.88

Consider next the compound O=C(Nc1cccc(C(=O)Nc2ccccc2Cl)c1)Nc1ccccc1Cl [EI-01B] in the same way. 2.89

Same again, this time with Cc1ccccc1NC(=O)Nc1cccc(NC(=O)Nc2ccccc2C)c1 3.60

Check Cc1ccccc1NC(=O)Nc1cccc(N)c1 too. 5.24

Can you check Nc1cccc(NC(=O)Nc2cccc(N)c2)c1 next? 4.62

How about this compound: Cc1ccccc1NC(=O)Nc1cccc(NC(=O)Nc2cccc(NC(=O)Nc3ccccc3C)c2)c1 2.89

* * *

So I've got a bunch of compounds here, and I need their Selectivity index PBMCs, CC50/EC50 values.
- Tested on: PBMCs
- ASSAY_NOTES: Cell viability / cytotoxicity on PBMCs
- Format: cell-based
- REPORTED_CONDITIONS: PBMCs CC50 / antiviral EC50
- Source text: Cell viability in the presence of the compounds has been determined by standard MTT assays.
Number only, please.

Please look up its Selectivity index PBMCs, CC50/EC50: O=C(CCN1C(=O)/C(=C/c2cccc(F)c2)SC1=S)Nc1ccccc1O [Compound 35b] 6.7

Could you do the same for Oc1ccccc1/C=N/Nc1nc(Nc2ccc(F)cc2)nc(Nc2ccc(F)cc2)n1 , please? 4.0

Same lookup for O=C(CCN1C(=O)/C(=C/c2cccc(Br)c2)SC1=S)Nc1ccccc1O , please. 1.8

Another compound: Oc1ccccc1/C=N/Nc1nc(Nc2ccc(F)cc2)nc(N2CCOCC2)n1 [Compound 16c] 4.0

* * *

- System: HeLa cells
- ASSAY_NOTES: Cell viability / cytotoxicity on HeLa cells
- Assay type: cell-based
- REPORTED_CONDITIONS: HeLa; Table 2 prints no unit; text gives μM; read-out: Cytotoxicity (CC50) HeLa, dose required to reduce 50% cell vitality
REPORTED_ENDPOINT: CC50

Consider the compound shown here: O=C(CCN1C(=O)/C(=C/c2cccc(Br)c2)SC1=S)Nc1ccccc1O [FE-15] What is its recorded CC50? > 200 µM

* * *

- MEASURED_TARGET: human DDX3 (ATPase activity) (Homo sapiens, UniProt O00571)
- Construct: made in house; host or cells: E. coli
- ASSAY_NOTES: Human DDX3 ATPase activity assay (luciferase-based luminescence)
- Type: biochemical
- REPORTED_CONDITIONS: DDX3 ATPase activity; read-out: Ki (μM), apparent equilibrium dissociation constant for the inhibitor to the target enzyme DDX3
REPORTED_ENDPOINT: log10 of Ki (log10 of the value in µM)
log10 Ki, µM

Need log10 of Ki of O=C1Nc2ccccc2/C1=N\Nc1nc(Nc2cccc(Cl)c2)nc(N2CCOCC2)n1 [FE-56AD] , thanks. 0.30

Please do the same for Clc1ccc(/C=N/Nc2nc(Nc3ccccc3)nc(Nc3ccccc3)n2)cc1Cl [FE-56O] as well. 1.26

Same thing, different compound: Cc1ccc(Nc2nc(N/N=C3/C(=O)Nc4ccccc43)nc(N3CCOCC3)n2)cc1Cl [FE-56AH] 0.51

Follow-up entry: Oc1ccccc1/C=N/Nc1nc(Nc2ccc(F)cc2)nc(N2CCOCC2)n1 [Compound 11d] -0.40

Try CC(=O)Nc1ccc(/C(C)=N/Nc2nc(Nc3ccccc3)nc(Nc3ccccc3)n2)cc1 [FE-56F] next. -0.52

Another compound to look at: CCN(CC)c1nc(NCc2ccccc2)nc(N/N=C2/C(=O)Nc3ccccc32)n1 [Compound 14g] -1.00

Note, next up: Oc1ccccc1/C=N/Nc1nc(Nc2ccc(F)cc2)nc(Nc2ccc(F)cc2)n1 -1.00

Likewise for Oc1ccc(/C=N/Nc2nc(Nc3ccccc3)nc(Nc3ccccc3)n2)c(O)c1 [FE-56I] ? 1.52

* * *

- Test system: cervical cancer HeLa cell line
- ASSAY_NOTES: Antiproliferative activity against HeLa cells (CellTiter viability assay)
- Type: cell-based
- REPORTED_CONDITIONS: Homo sapiens, 72 hours, read-out: EC50 (μM) 72 hours, dose required to suppress 50% of cell viability
For each record, write down the corresponding EC50.

Dear colleague, I am looking for the recorded EC50 of the following compound: O=C(CCN1C(=O)/C(=C/c2cccc(F)c2)SC1=S)Nc1ccccc1O [Compound 35b] 10 µM

Record: CC(=O)Nc1ccc(/C(C)=N/Nc2nc(Nc3ccccc3)nc(Nc3ccccc3)n2)cc1 [FE-56F] 5 µM

And what about the compound Clc1ccc(-c2ccc(/C=N/Nc3nc(Nc4ccccc4)nc(N4CCCCC4)n3)o2)cc1 [FE-56N] ? 4 µM

Same again, this time with CCN(CC)c1nc(NCc2ccccc2)nc(N/N=C/c2ccccc2O)n1 [Compound 15k] 1 µM

Now this one: COc1ccc(Nc2nc(NCc3ccco3)nc(N/N=C/c3cc([N+](=O)[O-])ccc3O)n2)cc1 [FE-56A] 4 µM

# repeat for CCN(CC)c1nc(NCc2ccccc2)nc(N/N=C2/C(=O)Nc3ccccc32)n1 [Compound 14g] 10 µM

Lookup Cc1[nH]c2ccccc2c1/C=N/Nc1nc(Nc2ccc(F)cc2)nc(N2CCOCC2)n1 [FE-56M] 5 µM

* * *

REPORTED_ENDPOINT: melting point

Returns the measured melting point for the input compound. Input: Fc1ccc(Nc2nc(N/N=C/c3ccc4ccccc4c3)nc(N3CCOCC3)n2)cc1 [Compound 11b] 225 to 226 °C

Note, next up: O=C(CCN1C(=O)/C(=C/c2ccc3c(c2)OCO3)SC1=S)Nc1ccccc1O [Compound 35f] 240 to 241 °C

// query: O=C(CCN1C(=O)/C(=C/c2cccc(Br)c2)SC1=S)Nc1ccccc1[N+](=O)[O-] [Compound 35g] 204 to 206 °C

Then O=C1Nc2ccccc2/C1=N/Nc1nc(NCc2cccc(Cl)c2)nc(N2CCOCC2)n1 [Compound 14f] ? 144 to 144.5 °C

Then this compound: O=C(CCN1C(=O)/C(=C/c2cc(F)cc(F)c2)SC1=S)Nc1ccccc1O [Compound 35c] 235 to 237 °C

// same read-out, input: COC(CN1C(=O)/C(=C/c2cccc(Br)c2)SC1=S)OC 124 to 126 °C

Lookup CCCCN1C(=O)/C(=C/c2cccc(Br)c2)SC1=S 113 to 115 °C

Please answer likewise for O=C1/C(=C/c2cccnc2)SC(=S)N1CCc1ccccc1 138 to 140 °C

Entry to check: O=C1/C(=C/c2cccc(Br)c2)SC(=S)N1CCc1ccccc1 102 to 104 °C
